Assay: yeast display, Sf9 membrane polyspecificity reagent, FACS + sequencing; frameworks hold sequencing errors
Attribute measured: polyreactivity (PSR sort gate)

Sequence input	polyreactivity (PSR sort gate)
QVQLVESGGGLVQAGGSLRLSCAASGSTFPYYAMGWYRQAPGKERELVAVITSSGSRTYYADSVKGRFTISRDNAKNTVYLQMNSLKPEDTAVYYCARDTRYYRPYRSQYDYWGQGTQVTVSS	high polyreactivity
QVQLVESGGGLVQAGGSLRLSCAASGRIFKTNAMGWYRQAPGKERELVAAISWRGVGTYYADSVKGRFTISRDNAKNTVYLQMNSLKPEDTAVYYCAARWTVPRDTAPSKGYDYWGQGTQVTVSS	low polyreactivity
QVQLEESGGGLVQAGGSLRLTCAGSGSIFYVYPMGWYRPAPGKERELVAAIYSGASTYYADSVKGRFTISRDNAKNTVYLQKNSLKPEDTAVYYCAAYVFFQTYFSYYVEGDFWGQGTQVTVSS	low polyreactivity
QVQLVESGGGLVQAGGSLRLSCAASGSTFSIYAMGWYRQAPGKERELVAAITSDGSTYYADSVKGRFTISRDNAKNTVYLQMNSLKPEDTAVYYCAADWWYGWVSYEYWGQGTQVTVSS	high polyreactivity

Q: I would be grateful if you could share the reported polyreactivity (PSR sort gate) for QVQLVESGGGLVQAGGSLRLSCAASGSTLLTYTMGWYRQAPGKERELVASITTSGGSTYADSVKGRFTISRDNAKNTVYLQLNSLKPEDTAVYYCAALYLWYSYHVVYQYDYWGQGTQVTVSS .
Ans: low polyreactivity
